Study System: UniProt Q9HBY8
Sequence (Q9HBY8 1-367): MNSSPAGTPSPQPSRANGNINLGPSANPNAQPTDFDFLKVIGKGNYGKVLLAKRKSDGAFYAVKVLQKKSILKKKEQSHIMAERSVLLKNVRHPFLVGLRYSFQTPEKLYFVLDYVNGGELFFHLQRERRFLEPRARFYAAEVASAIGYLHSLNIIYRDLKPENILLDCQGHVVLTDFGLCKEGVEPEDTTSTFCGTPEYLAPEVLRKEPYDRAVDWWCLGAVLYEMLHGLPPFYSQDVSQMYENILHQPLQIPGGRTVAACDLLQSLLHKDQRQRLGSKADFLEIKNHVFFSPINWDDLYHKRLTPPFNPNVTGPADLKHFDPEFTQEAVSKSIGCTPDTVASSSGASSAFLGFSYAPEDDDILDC
Method Description: Enzyme based assay for SGK2 (biotinylated Akt Substrates-2 peptide, Eu3+ Cryptate/XL665 detection)
Format: biochemical
Condition Info: 50 μM ATP; read-out: Sgk2 (50 μM ATP)
Readout Kind: pIC50
Please note pIC50 is a logarithmic value: minus log10 of concentration in mol/L. Answer with that number alone.

In [3]: df
Out[3]:
                                   compound    study_system  readout_kind  test_result
0  COc1ccc(F)c(S(=O)(=O)Nc2ccc(-c3cc(OC4COC4)c4c(N)n[nH]c4c3)cc2)c1  UniProt Q9HBY8         pIC50         8.36
1  COc1ccc(F)c(S(=O)(=O)Nc2ccc(-c3cc(OCC4CNCCO4)c4c(N)n[nH]c4c3)cc2)c1 (stereo not shown)  UniProt Q9HBY8         pIC50         8.70
2  COc1ccc(F)c(S(=O)(=O)Nc2ccc(-c3cnc4c(N)n[nH]c4c3)nc2)c1  UniProt Q9HBY8         pIC50         7.56

# input compound: COc1ccc(Cl)c(S(=O)(=O)Nc2ccc(-c3cc4[nH]ncc4c(OCC4CNCCO4)n3)cc2)c1 (stereo not shown) ; wanted: its pIC50
8.70

Just for reference, patent US11236083B2 is where these values come from.
